Biological target: CLK3 kinase (Homo sapiens)
Sequence (P49761 whole entry): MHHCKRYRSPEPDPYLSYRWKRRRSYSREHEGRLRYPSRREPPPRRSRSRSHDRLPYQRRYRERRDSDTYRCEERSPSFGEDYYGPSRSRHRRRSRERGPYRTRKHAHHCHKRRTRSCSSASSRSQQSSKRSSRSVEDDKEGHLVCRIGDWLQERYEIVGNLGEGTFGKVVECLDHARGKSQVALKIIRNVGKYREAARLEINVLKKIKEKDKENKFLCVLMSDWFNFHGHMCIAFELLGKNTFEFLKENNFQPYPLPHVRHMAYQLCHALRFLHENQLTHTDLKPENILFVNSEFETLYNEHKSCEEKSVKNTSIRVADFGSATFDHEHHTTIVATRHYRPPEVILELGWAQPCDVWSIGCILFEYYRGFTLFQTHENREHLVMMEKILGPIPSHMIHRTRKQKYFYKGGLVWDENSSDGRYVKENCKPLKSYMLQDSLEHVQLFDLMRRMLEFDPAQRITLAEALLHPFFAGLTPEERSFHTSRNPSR
Assay: CLK3 kinase activity assay (Z-lyte FRET);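 also: kinase activity read as coumarin/fluorescein emission ratio by FRET, unphosphorylated peptide as 0% and phosphorylated peptide as 100% control, values from non-linear regression of dose-response curves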
Details: Z-lyte Ser/Thr 18 peptide, 156 μM ATP, 1 h at room temperature
pEC50: −log10 of the molar value.
Property Measured: pEC50

{"Compound Structure String": "Fc1ccccc1-c1cncc2[nH]c(-c3n[nH]c4ncc(-c5cn[nH]c5)cc34)cc12", "Property Measured": "pEC50", "Numeric Value": 7.00}

[a] CC(C)C(=O)Nc1cncc(-c2cc3c(-c4cc5c(-c6cccnc6)cccc5[nH]4)n[nH]c3cn2)c1
[b] Cn1cc(-c2ccc3cnc(NC(=O)c4ccc5c(c4)ncn5C)cc3c2)cn1
[c] O=C(Nc1c[nH]nc1C(=O)Nc1ccc(N2CCC(F)(F)C2)nc1)c1cncc(OC2CCNCC2)c1
Q: Sort these molecules on pEC50 so the largest reading comes first. Put the labels in the order asked and list them.
Result: b, a, c
